Provenance of the data: the supplement of paper PMC10567573

B1: DCAF4 (parent)
chain: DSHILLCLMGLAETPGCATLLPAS

- Variants of: B1
- Test Name: protein stability index of a GFP-peptide fusion (GPS, HEK-293T) (PSI 1-6); higher = more stable;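 note: lentivirally expressed fusions sorted by FACS into six bins by GFP to DsRed ratio, PSI derived from sequencing read proportions per bin multiplied by bin number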
- Experimental Context: c terminus: a fixed tail appended
Observed Property: protein stability index

Sample T19W ; protein stability index observed: 2.05

Sample H3Y ; protein stability index observed: 2.67

Sample A12Y ; protein stability index observed: 4
